Study System: CYP2C8 (Homo sapiens)
Sequence (P10632 1-490): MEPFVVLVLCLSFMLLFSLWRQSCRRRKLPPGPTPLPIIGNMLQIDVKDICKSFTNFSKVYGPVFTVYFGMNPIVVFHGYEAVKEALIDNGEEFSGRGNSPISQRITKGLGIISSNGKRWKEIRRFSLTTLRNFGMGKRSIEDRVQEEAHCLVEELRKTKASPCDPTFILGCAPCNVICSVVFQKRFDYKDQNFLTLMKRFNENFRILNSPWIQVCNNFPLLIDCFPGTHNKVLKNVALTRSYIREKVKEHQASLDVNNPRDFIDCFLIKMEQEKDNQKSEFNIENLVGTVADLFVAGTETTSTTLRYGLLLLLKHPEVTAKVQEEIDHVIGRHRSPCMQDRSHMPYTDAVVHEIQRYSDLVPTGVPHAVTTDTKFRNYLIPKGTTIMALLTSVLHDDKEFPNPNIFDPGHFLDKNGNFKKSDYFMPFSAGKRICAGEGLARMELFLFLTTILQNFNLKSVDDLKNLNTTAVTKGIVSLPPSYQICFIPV
Measure: pIC50
Would you please state pIC50, meaning minus log10 of the concentration in mol/L, as a bare number?

Looking up Cc1cc(Nc2nc([C@H](O)c3ccc(F)cc3)nc3ccccc23)n[nH]1 [(R)(−)] , I found its pIC50 recorded as 4.57

Looking up Cc1cc(Nc2nc(C(O)c3ccc(F)cc3)nc3ccccc23)n[nH]1 (racemic) [Racemate] , I found its pIC50 recorded as 4.64

Looking up Cc1cc(Nc2nc([C@@H](O)c3ccc(F)cc3)nc3ccccc23)n[nH]1 [(S)(+)] , I found its pIC50 recorded as 4.64

---

Procedure Summary: in vivo
Condition Description: male, cynomolgus monkey
Measure: bioavailability (%)
Dear colleague, please return just the value in %, with no unit written.

Looking up Cc1cc(Nc2nc([C@@H](O)c3ccc(F)cc3)nc3ccccc23)n[nH]1 [(S)(+)] , I found its bioavailability recorded as 89

---

Procedure Summary: Pharmacokinetic studies in monkeys
Condition Description: monkeys; Racemic administered PO 10 mg/kg; chiral analysis, label = analyte
Measure: Cmax (µM)
Dear colleague, please return just the value in µM, with no unit written.

Looking up Cc1cc(Nc2nc(C(O)c3ccc(F)cc3)nc3ccccc23)n[nH]1 (racemic) [Racemate] , I found its Cmax recorded as 5.76

---

Study System: melatonin MT (Homo sapiens, UniProt P48039)
Construct: expressed in transfected cells; host or cells: CHO-K1
Sequence (P48039 whole entry): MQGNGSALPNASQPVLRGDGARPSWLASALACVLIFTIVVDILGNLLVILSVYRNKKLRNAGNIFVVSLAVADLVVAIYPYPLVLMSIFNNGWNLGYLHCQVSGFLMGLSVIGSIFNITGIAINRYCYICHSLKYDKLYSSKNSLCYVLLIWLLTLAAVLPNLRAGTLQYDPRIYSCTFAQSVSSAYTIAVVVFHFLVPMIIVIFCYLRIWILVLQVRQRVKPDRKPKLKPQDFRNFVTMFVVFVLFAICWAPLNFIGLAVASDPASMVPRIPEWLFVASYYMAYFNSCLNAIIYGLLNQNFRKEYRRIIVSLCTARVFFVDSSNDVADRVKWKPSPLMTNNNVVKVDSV
Procedure Summary: Melatonin MT GTPγS binding assay
Assay type: biochemical
Condition Description: GTPγS bound relative to 2-iodomelatonin response, CHO-K1 cells; read-out: IC50 against melatonin
Measure: IC50 (µM)
Dear colleague, please return just the value in µM, with no unit written.

Looking up Cc1cc(Nc2nc(C(O)c3ccc(F)cc3)nc3ccccc23)n[nH]1 (racemic) [Racemate] , I found its IC50 recorded as 9.75

---

Tested on: GM-CSFR/JAK2/STAT5 pathway in csTF-1 cells
Procedure Summary: csTF-1 cell-based reporter assay
Condition Description: Homo sapiens, GM-CSF at 2 ng/mL, beta-lactamase reporter, read-out: EC50, inhibition of GM-CSF stimulated reporter activity
Measure: pEC50
Would you please state pEC50, meaning minus log10 of the concentration in mol/L, as a bare number?

Looking up Cc1cc(Nc2nc(C(O)c3ccc(F)cc3)nc3ccccc23)n[nH]1 (racemic) [Racemate] , I found its pEC50 recorded as 7.15

Looking up Cc1cc(Nc2nc([C@H](O)c3ccc(F)cc3)nc3ccccc23)n[nH]1 [(R)(−)] , I found its pEC50 recorded as 7.12

Looking up Cc1cc(Nc2nc([C@@H](O)c3ccc(F)cc3)nc3ccccc23)n[nH]1 [(S)(+)] , I found its pEC50 recorded as 7.42
